Entries and their S. aureus (MRSA) MIC
- Tested on: S. aureus (MRSA) ATCC 33591
- Type: cell-based, Staphylococcus aureus
- conditionSet: ATCC 33591
Non-standard residues stand in square brackets, D forms with d. Residues, ends and D or L forms follow the SMILES beside them.

compound | resultUnit | S. aureus (MRSA) MIC
CC(C)C[C@H]1NC(=O)[C@H](Cc2c[nH]c3ccccc23)NC(=O)[C@@H](CCCCN)NC(=O)[C@H](CCCNC(=N)N)NC(=O)[C@@H](CCCCN)NC(=O)[C@H](Cc2c[nH]c3ccccc23)NC(=O)[C@@H](CC(C)C)NC(=O)[C@H](Cc2c[nH]c3ccccc23)NC1=O [SEQ ID NO:19, D-Lys-Arg-D-Lys-Trp-D-Leu-Trp-D-Leu-Trp] (cyclo([dK]R[dK]W[dL]W[dL]W)) | µg/mL | 10
CC(C)C[C@@H]1NC(=O)[C@@H](Cc2c[nH]c3ccccc23)NC(=O)[C@H](CCCNC(=N)N)NC(=O)[C@@H](CCC(N)=O)NC(=O)[C@H](CCCCN)NC(=O)[C@@H](Cc2c[nH]c3ccccc23)NC(=O)[C@H](CC(C)C)NC(=O)[C@@H](Cc2c[nH]c3ccccc23)NC1=O [SEQ ID NO:9] (cyclo(K[dQ]R[dW]L[dW]L[dW])) | µg/mL | 8
CC(C)C[C@H]1NC(=O)[C@H](Cc2c[nH]c3ccccc23)NC(=O)[C@@H](CCCNC(=N)N)NC(=O)[C@H](CCC(N)=O)NC(=O)[C@@H](CCCNC(=N)N)NC(=O)[C@H](Cc2c[nH]c3ccccc23)NC(=O)[C@@H](CC(C)C)NC(=O)[C@H](Cc2c[nH]c3ccccc23)NC1=O [SEQ ID NO:10, RQRWLWLW] (cyclo([dR]Q[dR]W[dL]W[dL]W)) | µg/mL | 18
CC(C)C[C@H]1NC(=O)[C@H](Cc2c[nH]c3ccccc23)NC(=O)[C@@H](Cc2c[nH]cn2)NC(=O)[C@H](CCCCN)NC(=O)[C@@H](Cc2c[nH]cn2)NC(=O)[C@H](Cc2c[nH]c3ccccc23)NC(=O)[C@@H](CC(C)C)NC(=O)[C@H](Cc2c[nH]c3ccccc23)NC1=O [SEQ ID NO:21] (cyclo(K[dH]W[dL]W[dL]W[dH])) | µg/mL | 12
CC(C)C[C@H]1NC(=O)[C@H](CO)NC(=O)[C@@H](CCCCN)NC(=O)[C@H](Cc2c[nH]c3ccccc23)NC(=O)[C@@H](CC(C)C)NC(=O)[C@H](Cc2c[nH]c3ccccc23)NC1=O [SEQ ID NO:28, cyclo-(D-Lys-Ser-D-Leu-Trp-D-Leu-Trp)] (cyclo(S[dL]W[dL]W[dK])) | µg/mL | 75
CC(C)C[C@H]1NC(=O)[C@H](Cc2c[nH]c3ccccc23)NC(=O)[C@@H](CCCCN)NC(=O)[C@H](Cc2c[nH]cn2)NC(=O)[C@@H](CCCCN)NC(=O)[C@H](Cc2c[nH]c3ccccc23)NC(=O)[C@@H](CC(C)C)NC(=O)[C@H](Cc2c[nH]c3ccccc23)NC1=O [SEQ ID NO:22, KHKWLWLW] (cyclo([dK]H[dK]W[dL]W[dL]W)) | µg/mL | 10
CC(C)C[C@@H](NC(=O)[C@H](Cc1c[nH]c2ccccc12)NC(=O)[C@@H](CC(C)C)NC(=O)[C@H](Cc1c[nH]c2ccccc12)NC(=O)[C@@H](CCCCN)NC(=O)[C@H](CCCCN)NC(=O)[C@H](N)CCCCN)C(=O)N[C@@H](Cc1c[nH]c2ccccc12)C(=O)O [SEQ ID NO:24, KKKWLWLW] (H-[dK]K[dK]W[dL]W[dL]W-OH; N-terminus and C-terminus assumed) | µg/mL | 50
CC(C)C[C@H]1NC(=O)[C@H](Cc2c[nH]c3ccccc23)NC(=O)[C@@H](Cc2c[nH]cn2)NC(=O)[C@H](Cc2c[nH]cn2)NC(=O)[C@@H](CO)NC(=O)[C@H](Cc2c[nH]c3ccccc23)NC(=O)[C@@H](CC(C)C)NC(=O)[C@H](Cc2c[nH]c3ccccc23)NC1=O [SEQ ID NO:15, SHHWLWLW] (cyclo([dS]H[dH]W[dL]W[dL]W)) | µg/mL | 20
CC(C)C[C@H]1NC(=O)[C@H](Cc2c[nH]c3ccccc23)NC(=O)[C@@H](CCCCN)NC(=O)[C@H](CCC(N)=O)NC(=O)[C@@H](CCCCN)NC(=O)[C@H](Cc2c[nH]c3ccccc23)NC(=O)[C@@H](CC(C)C)NC(=O)[C@H](Cc2c[nH]c3ccccc23)NC1=O [SEQ ID NO:11] (cyclo([dK]Q[dK]W[dL]W[dL]W)) | µg/mL | 45
CC(C)C[C@H]1NC(=O)[C@H](Cc2c[nH]c3ccccc23)NC(=O)[C@@H](Cc2c[nH]cn2)NC(=O)[C@H](CCCCN)NC(=O)[C@@H](CO)NC(=O)[C@H](Cc2c[nH]c3ccccc23)NC(=O)[C@@H](CC(C)C)NC(=O)[C@H](Cc2c[nH]c3ccccc23)NC1=O [SEQ ID NO:14] (cyclo(K[dH]W[dL]W[dL]W[dS])) | µg/mL | 15
CC(C)C[C@H]1NC(=O)[C@H](Cc2c[nH]c3ccccc23)NC(=O)[C@@H](CC(C)C)NC(=O)[C@H](Cc2c[nH]c3ccccc23)NC(=O)[C@@H](CC(=O)O)NC(=O)CNC(=O)[C@@H](CCCNC(=N)N)NC(=O)[C@H](Cc2c[nH]c3ccccc23)NC1=O [SEQ ID NO:7, RGDWLWLW] (cyclo([dR]G[dD]W[dL]W[dL]W)) | µg/mL | 100

----------
- Test system: murine red blood cells
- assayRemarks: Red blood cell hemolysis
- Type: cell-based, mouse
Counter-ions that a name gives are not always drawn. Non-standard residues stand in square brackets, D forms with d. Residues, ends and D or L forms follow the SMILES beside them.
Returns: string. Value is Fulfilled if measured RBC Hemolysis (HD50) is below 100, and Not fulfilled if it is greater than or equal to it.

molecule | assignedLabel
CC(C)C[C@H]1NC(=O)[C@H](CCCCN)NC(=O)[C@@H](CO)NC(=O)[C@H](CCCCN)NC(=O)[C@@H](CC(C)C)NC(=O)[C@H](Cc2c[nH]c3ccccc23)NC(=O)[C@@H](CC(C)C)NC(=O)[C@H](Cc2c[nH]c3ccccc23)NC1=O [SEQ ID NO:61, [KSKLWLWL]] (cyclo(K[dS]K[dL]W[dL]W[dL])) | Not fulfilled
CC(C)C[C@H]1NC(=O)[C@H](CCCCN)NC(=O)[C@@H](CCCCN)NC(=O)[C@H](Cc2c[nH]c3ccccc23)NC(=O)[C@@H](CC(C)C)NC(=O)[C@H](Cc2c[nH]c3ccccc23)NC1=O [SEQ ID NO:26, cyclo-(D-Lys-Lys-D-Leu-Trp-D-Leu-Trp)] (cyclo(K[dL]W[dL]W[dK])) | Fulfilled
CC(C)C[C@H]1NC(=O)[C@H](Cc2c[nH]c3ccccc23)NC(=O)[C@@H](CCCCN)NC(=O)[C@H](CCCNC(=N)N)NC(=O)[C@@H](CCCNC(=N)N)NC(=O)[C@H](Cc2c[nH]c3ccccc23)NC(=O)[C@@H](CC(C)C)NC(=O)[C@H](Cc2c[nH]c3ccccc23)NC1=O [[RRKWLWLW]-HCl] (cyclo([dR]R[dK]W[dL]W[dL]W)) | Fulfilled
CC(C)C[C@H]1NC(=O)[C@H](Cc2c[nH]c3ccccc23)NC(=O)[C@@H](CCCCN)NC(=O)[C@H](CCCNC(=N)N)NC(=O)[C@@H](CCCNC(=N)N)NC(=O)[C@H](Cc2c[nH]c3ccccc23)NC(=O)[C@@H](CC(C)C)NC(=O)[C@H](Cc2c[nH]c3ccccc23)NC1=O [SEQ ID NO:18] (cyclo([dR]R[dK]W[dL]W[dL]W)) | Fulfilled
CC(C)C[C@H]1NC(=O)[C@H](Cc2ccccc2)NC(=O)[C@@H](CC(C)C)NC(=O)[C@H](CCCCN)NC(=O)[C@@H]([C@H](C)O)NC(=O)[C@H](CCCCN)NC(=O)[C@@H](CC(C)C)NC(=O)[C@H](Cc2ccccc2)NC1=O [SEQ ID NO:65, [KTKLFLFL]] (cyclo(K[dT]K[dL]F[dL]F[dL])) | Not fulfilled
CC(C)C[C@@H]1NC(=O)[C@@H](Cc2c[nH]c3ccccc23)NC(=O)[C@H](CCCCN)NC(=O)[C@@H](CO)NC(=O)[C@H](CCCCN)NC(=O)[C@@H](CO)NC(=O)[C@H](CCCCN)NC(=O)[C@@H](Cc2c[nH]c3ccccc23)NC1=O [SEQ ID NO:91, [KSKSKWLW]] (cyclo(K[dS]K[dS]K[dW]L[dW])) | Not fulfilled
CC(C)C[C@H]1NC(=O)[C@H](Cc2c[nH]c3ccccc23)NC(=O)[C@@H](CCCCN)NC(=O)[C@H](CCCCN)NC(=O)[C@@H](CCCCN)NC(=O)[C@H](Cc2c[nH]c3ccccc23)NC(=O)[C@@H](CC(C)C)NC(=O)[C@H](Cc2c[nH]c3ccccc23)NC1=O [[KKKWLWLW-HCl] (17)] (cyclo([dK]K[dK]W[dL]W[dL]W)) | Fulfilled
CC(C)C[C@H]1NC(=O)[C@H](Cc2ccccc2)NC(=O)[C@@H](CCCCN)NC(=O)[C@H](CO)NC(=O)[C@@H](CO)NC(=O)[C@H](CCCCN)NC(=O)[C@@H](CC(C)C)NC(=O)[C@H](Cc2ccccc2)NC1=O [SEQ ID NO:79, [KSSKFLFL]] (cyclo(K[dS]S[dK]F[dL]F[dL])) | Not fulfilled
CC(C)C[C@@H]1NC(=O)[C@@H](Cc2c[nH]c3ccccc23)NC(=O)[C@H](CCCCN)NC(=O)[C@@H](CCC(=O)O)NC(=O)[C@H](CCCCN)NC(=O)[C@@H](Cc2c[nH]c3ccccc23)NC1=O [SEQ ID NO:117, [KEKWLW]] (cyclo(K[dE]K[dW]L[dW])) | Not fulfilled

From: patent US20050107289A1
